# Tested on: RAW264.7
# assay_procedure: Inhibition of LPS-induced NO production in mouse RAW264.7 cells
# Assay type: functional, cell-based
quantity_kind: IC50 (µM)
Please give a number only; it is taken to be in µM.

Retrieve IC50 on RAW264.7; query COc1ccc2[nH]c3c(c2c1)C[C@@H]1C(=CC[C@@H]2[C@@]1(C)C(=O)C[C@]1(C)[C@@H]([C@H](C)CC[C@@H](O)C(C)(C)O)CC[C@@]21C)C3(C)C 5.05

###

# Tested on: RAW264.7
# assay_procedure: Cytotoxicity against mouse RAW264.7 cells at 10 uM measured after 24 hrs by CCK-8 assay relative to control
# Type: toxicity, cell-based
# test_context: raw264.7, 24 h
quantity_kind: Activity

{"columns": ["record_smiles", "meas_value"],
 "data": [
  ["C[C@H](CC[C@@H](O)C(C)(C)O)[C@H]1CC[C@@]2(C)[C@@H]3CC=C4[C@@H](C/C(=C\\c5ccncc5)C(=O)C4(C)C)[C@]3(C)[C@H](O)C[C@]12C", "Toxic"],
  ["C[C@H](CC[C@@H](O)C(C)(C)O)[C@H]1CC[C@@]2(C)[C@@H]3CC=C4[C@@H](C/C(=C\\c5ccc(Cl)cc5)C(=O)C4(C)C)[C@]3(C)[C@H](O)C[C@]12C", "Toxic"],
  ["Cc1ccc(/C=C2\\C[C@@H]3C(=CC[C@@H]4[C@@]3(C)C(=O)C[C@]3(C)[C@@H]([C@H](C)CC[C@@H](O)C(C)(C)O)CC[C@@]43C)C(C)(C)C2=O)cc1", "Toxic"]
]}
